Target: Progesterone receptor (Homo sapiens, UniProt P06401); further: assay procedure not described here
Sequence (P06401 whole entry): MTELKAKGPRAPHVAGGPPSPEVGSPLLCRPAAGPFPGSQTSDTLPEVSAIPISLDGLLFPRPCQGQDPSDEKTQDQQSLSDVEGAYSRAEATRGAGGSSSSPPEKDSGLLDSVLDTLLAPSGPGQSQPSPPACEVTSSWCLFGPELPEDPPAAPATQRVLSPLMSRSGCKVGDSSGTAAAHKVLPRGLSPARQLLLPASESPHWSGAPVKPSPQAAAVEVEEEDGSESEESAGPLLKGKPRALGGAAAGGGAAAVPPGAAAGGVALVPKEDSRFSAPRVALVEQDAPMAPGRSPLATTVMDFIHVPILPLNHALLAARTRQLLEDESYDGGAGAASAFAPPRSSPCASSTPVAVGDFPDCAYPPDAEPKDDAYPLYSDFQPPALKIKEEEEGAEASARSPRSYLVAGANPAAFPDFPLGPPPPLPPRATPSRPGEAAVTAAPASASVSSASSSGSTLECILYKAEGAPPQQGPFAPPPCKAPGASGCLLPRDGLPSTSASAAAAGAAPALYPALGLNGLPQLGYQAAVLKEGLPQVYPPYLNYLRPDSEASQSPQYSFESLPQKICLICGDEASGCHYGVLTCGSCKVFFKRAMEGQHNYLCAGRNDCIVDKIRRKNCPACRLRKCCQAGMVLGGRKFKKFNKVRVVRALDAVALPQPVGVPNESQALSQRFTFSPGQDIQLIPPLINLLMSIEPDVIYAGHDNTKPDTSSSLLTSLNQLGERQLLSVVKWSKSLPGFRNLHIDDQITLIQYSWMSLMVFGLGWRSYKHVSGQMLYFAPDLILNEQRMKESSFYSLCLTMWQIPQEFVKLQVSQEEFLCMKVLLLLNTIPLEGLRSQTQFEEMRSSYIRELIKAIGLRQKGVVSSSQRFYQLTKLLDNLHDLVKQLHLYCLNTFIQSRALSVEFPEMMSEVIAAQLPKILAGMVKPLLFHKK
Assay type: functional
ASSAY_ENDPOINT: AC50

# input Recall the recorded AC50 for CCc1cc2c(s1)-n1c(C)nnc1CN=C2c1ccccc1Cl [ETIZOLAM] with Progesterone receptor (Homo sapiens, UniProt P06401) and state it.
# output > 30 µM

# input Another: CC(C)(C)NCC(O)c1ccccc1Cl (stereo not drawn) [TULOBUTEROL]
# output > 30 µM

# input // same read-out, input: CNC(=C[N+](=O)[O-])NCCSCc1csc(CN(C)C)n1 [NIZATIDINE]
# output > 10 µM

# input Now the compound NNC(=O)c1ccncc1 [ISONIAZID]
# output > 30 µM

# input Now consider CN1Cc2c(N)cccc2C(c2ccccc2)C1 (stereo not drawn) [NOMIFENSINE] .
# output > 30 µM

# input Now the compound `CCOc1cc([C@@H](CS(C)(=O)=O)N2C(=O)c3cccc(NC(C)=O)c3C2=O)ccc1OC`
# output > 30 µM

# input Query C[C@]12C=CC(=O)C=C1CC[C@@H]1[C@@H]2CC[C@]2(C)OC(=O)CC[C@@H]12 [TESTOLACTONE] next
# output > 10 µM

# input Same lookup for O=C(O)CCNC(=O)c1ccc(/N=N/c2ccc(O)c(C(=O)O)c2)cc1 [BALSALAZIDE] , please.
# output > 30 µM

# input O=C1c2ccccc2C(=O)C1c1ccccc1 [PHENINDIONE] , same question.
# output > 10 µM

# input Try CC1(C)S[C@@H]2[C@H](NC(=O)C(C(=O)O)c3ccccc3)C(=O)N2[C@H]1C(=O)O (stereo partly drawn) [CARBENICILLIN] next.
# output > 30 µM

# input Continue with CCCCCCCN(CC)CCCC(O)c1ccc(NS(C)(=O)=O)cc1 (stereo not drawn) [IBUTILIDE]
# output > 30 µM

# input CCC(NC(C)C)C(O)c1ccc(O)c2[nH]c(=O)ccc12 (stereo not drawn) [PROCATEROL] ?
# output > 30 µM

# input Follow-up entry: CCN1CC(CCN2CCOCC2)C(c2ccccc2)(c2ccccc2)C1=O (stereo not drawn) [DOXAPRAM]
# output > 30 µM

# input Now the same for O=C(O)c1ccc(NC(=O)[C@H](Cc2ccc(O)cc2)NC(=O)c2ccccc2)cc1 [BENTIROMIDE]
# output > 10 µM

# input Likewise for CC(C(=O)O)c1ccc2oc(-c3ccc(Cl)cc3)nc2c1 (stereo not drawn) [BENOXAPROFEN] ?
# output > 30 µM

# input Now this one: NS(=O)(=O)c1cc2c(cc1Cl)N=C(CSCc1ccccc1)NS2(=O)=O [BENZTHIAZIDE]
# output > 30 µM

# input Entry COc1ccc(C2C(=O)c3ccccc3C2=O)cc1 [ANISINDIONE] please
# output > 30 µM

# input Okay, and CC1=C(/C=C/C(C)=C/C=C/C(C)=C/CO)C(C)(C)CCC1 [RETINOL] ?
# output > 30 µM

----------
Biological target: Alpha-1A adrenergic receptor (Homo sapiens, UniProt P35348); further: assay procedure not described here
Sequence (P35348 whole entry): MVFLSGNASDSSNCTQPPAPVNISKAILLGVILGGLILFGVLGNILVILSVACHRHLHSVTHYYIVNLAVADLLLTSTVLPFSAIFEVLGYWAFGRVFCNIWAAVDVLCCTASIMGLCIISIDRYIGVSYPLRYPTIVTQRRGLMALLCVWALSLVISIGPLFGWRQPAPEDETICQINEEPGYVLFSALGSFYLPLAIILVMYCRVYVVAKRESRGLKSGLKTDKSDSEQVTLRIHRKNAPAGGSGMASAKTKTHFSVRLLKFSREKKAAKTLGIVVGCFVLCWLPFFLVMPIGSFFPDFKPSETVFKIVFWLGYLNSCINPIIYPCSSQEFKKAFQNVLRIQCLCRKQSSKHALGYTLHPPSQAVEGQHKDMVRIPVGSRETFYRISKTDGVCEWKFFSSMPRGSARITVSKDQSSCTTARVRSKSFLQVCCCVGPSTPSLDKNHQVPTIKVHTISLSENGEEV
Assay type: functional, cell-based
ASSAY_ENDPOINT: AC50

>>> endpoint_result("CC[C@]12CCCN3CCc4c(n(c5ccccc45)[C@@](O)(C(=O)OC)C1)[C@@H]32")
"> 30 µM"
>>> endpoint_result("CC[N+](C)(CC)CCOC(=O)C(O)(c1ccccc1)C1CCCCC1 (configuration not stated)")
"> 30 µM"
>>> endpoint_result("O=C1Cc2cc(CCN3CCN(c4nsc5ccccc45)CC3)c(Cl)cc2N1")
"> 30 µM"
>>> endpoint_result("CC(C(=O)O)c1cccc(Oc2ccccc2)c1 (configuration not stated)")
"> 30 µM"
>>> endpoint_result("CC(C)[C@@H]1CC[C@@H](C)C[C@H]1O")
"> 30 µM"
>>> endpoint_result("N=C(N)N/N=C/c1c(Cl)cccc1Cl")
"0.0423 µM"
>>> endpoint_result("CC(=O)NO [ACETOHYDROXAMIC ACID]")
"> 30 µM"
>>> endpoint_result("C=C(C)CNc1ccc(C(C)C(=O)O)cc1 (configuration not stated)")
"> 30 µM"
>>> endpoint_result("CC(C)C(=O)Oc1ccc(CO)cc1[C@H](CCN(C(C)C)C(C)C)c1ccccc1")
"> 30 µM"
>>> endpoint_result("O=C(O)P(=O)(O)O")
"> 30 µM"

# input State the recorded AC50 for this entry: `C[N+](C)(C)CCOP(=O)(O)OP(=O)([O-])OC[C@H]1O[C@@H](n2ccc(N)nc2=O)[C@H](O)[C@@H]1O`
# output > 30 µM

# input Further, for `COc1cc(C(C)=O)ccc1OCCCN1CCC(c2noc3cc(F)ccc23)CC1` ?
# output > 10 µM

----------
# key: entry, value: AC50
Target: Type-1 angiotensin II receptor (Homo sapiens); further: assay procedure not described here
Sequence (P30556 whole entry): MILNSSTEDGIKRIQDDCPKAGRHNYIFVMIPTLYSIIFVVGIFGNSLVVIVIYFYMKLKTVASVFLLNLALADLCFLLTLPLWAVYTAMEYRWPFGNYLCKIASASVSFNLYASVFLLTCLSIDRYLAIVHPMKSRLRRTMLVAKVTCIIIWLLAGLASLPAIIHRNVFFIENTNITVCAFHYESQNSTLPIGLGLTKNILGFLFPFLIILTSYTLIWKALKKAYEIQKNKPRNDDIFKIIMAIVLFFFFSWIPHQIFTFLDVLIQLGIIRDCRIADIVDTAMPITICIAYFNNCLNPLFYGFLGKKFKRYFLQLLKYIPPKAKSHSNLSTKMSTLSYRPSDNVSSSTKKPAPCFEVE

>>> endpoint_result("CCC(=O)O[C@](Cc1ccccc1)(c1ccccc1)[C@H](C)CN(C)C [PROPOXYPHENE]")
"> 30 µM"
>>> endpoint_result("COc1cc(N)c(Cl)cc1C(=O)NC1CCN(CCCOc2ccc(F)cc2)CC1OC (stereo unspecified) [CISAPRIDE]")
"> 30 µM"
>>> endpoint_result("Cc1ccccc1-n1c(CF)nc2ccc(N)cc2c1=O [AFLOQUALONE]")
"> 30 µM"
>>> endpoint_result("COc1ccc([C@@H]2CC(=O)c3c(O)cc(O)cc3O2)cc1O [HESPERETIN]")
"> 10 µM"
>>> endpoint_result("CN[C@]1(c2ccccc2Cl)CCCCC1=O [ESKETAMINE]")
"> 30 µM"

# next molecule below
# input Can you look up the measured AC50 of Cc1cccc(C)c1NC(=O)CC12CCCN1CCC2 [PILSICAINIDE] for me?
# output > 30 µM

----------
// D(1A) dopamine receptor (Homo sapiens) AC50 records

Study these solved cases before continuing.
>>> endpoint_result("CC(O)(P(=O)(O)O)P(=O)(O)O")
"> 30 µM"
>>> endpoint_result("C=C(C)CNc1ccc(C(C)C(=O)O)cc1 (stereo not drawn)")
"> 30 µM"

Kindly consider the entry below.
# input Query (compound): CCNC(=O)/C=C(C)/C=C/C=C(C)/C=C/c1c(C)cc(OC)c(C)c1C [MOTRETINIDE] ; field requested: AC50
# output > 30 µM

----------
Below, each entry is listed alongside its reported AC50.
Biological target: Muscarinic acetylcholine receptor M2 (Homo sapiens); further: assay procedure not described here
Sequence (P08172 whole entry): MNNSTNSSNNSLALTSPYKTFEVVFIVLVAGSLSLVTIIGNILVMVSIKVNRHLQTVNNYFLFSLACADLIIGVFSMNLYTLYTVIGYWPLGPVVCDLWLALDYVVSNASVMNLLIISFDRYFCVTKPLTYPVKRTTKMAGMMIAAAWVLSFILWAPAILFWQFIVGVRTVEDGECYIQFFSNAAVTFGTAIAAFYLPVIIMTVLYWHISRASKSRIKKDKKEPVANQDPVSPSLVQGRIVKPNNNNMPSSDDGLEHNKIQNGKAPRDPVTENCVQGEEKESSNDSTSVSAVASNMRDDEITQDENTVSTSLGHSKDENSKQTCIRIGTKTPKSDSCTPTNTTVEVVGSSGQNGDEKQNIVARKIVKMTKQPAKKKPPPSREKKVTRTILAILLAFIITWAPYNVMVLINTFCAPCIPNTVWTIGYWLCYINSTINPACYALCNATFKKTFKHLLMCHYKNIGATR

>>> endpoint_result("CC1(CCN2CCCCC2)C(=O)CCc2ccccc21 (stereo not given) [NEPINALONE]")
"7.14 µM"

# input Item under review: `O=C(O)[C@@H]1C[C@@H](O)CN1` . Reported AC50?
# output > 30 µM

# input Another molecule: C[C@]12C=CC(=O)C=C1CC[C@H]1[C@@H]3C[C@@H](O)[C@](O)(C(=O)CO)[C@@]3(C)C[C@H](O)[C@@]12F [TRIAMCINOLONE]
# output > 30 µM

# input Similarly, CC1(C)O[C@@H]2C[C@H]3[C@@H]4C[C@H](F)C5=CC(=O)C=C[C@]5(C)[C@@]4(F)[C@@H](O)C[C@]3(C)[C@]2(C(=O)CO)O1 [FLUOCINOLONE ACETONIDE] ?
# output > 30 µM

# input How about this molecule: CC(=O)[C@]1(N)Cc2c(O)c3c(c(O)c2[C@@H](O[C@H]2C[C@H](O)[C@H](O)CO2)C1)C(=O)c1ccccc1C3=O [AMRUBICIN]
# output > 30 µM

# input // query: C[N+](C)(C)CCOP(=O)(O)OP(=O)([O-])OC[C@H]1O[C@@H](n2ccc(N)nc2=O)[C@H](O)[C@@H]1O [CITICOLINE]
# output > 30 µM

# input What do we get for CC(COc1ccccc1)NC(C)C(O)c1ccc(O)cc1 (stereo not given) [ISOXSUPRINE] ?
# output > 30 µM

# input Thanks! And C[C@H]1O[C@@H](O[C@H]2CC[C@@]3(C)[C@H](CC[C@@H]4[C@@H]3C[C@@H](O)[C@]3(C)[C@@H](C5=CC(=O)OC5)CC[C@]43O)C2)C[C@H](O)[C@@H]1O[C@H]1C[C@H](O)[C@H](O[C@H]2C[C@H](O)[C@H](O[C@@H]3O[C@H](CO)[C@@H](O)[C@H](O)[C@H]3O)[C@@H](C)O2)[C@@H](C)O1 [DESLANOSIDE] ?
# output > 30 µM
